Test Readout: melting point (°C)

CN(C)C(=O)COc1ncc(Cl)cc1Nc1nccc(-c2cc(C#N)c3c(c2)[C@@](C)(CO)CN3)n1 [Compound 52]; 281

P = C[C@]1(CO)CNc2c(C#N)cc(-c3ccnc(Nc4cccnc4O[C@@H]4CCCOC4)n3)cc21 [Compound 27]
Q = CCOc1ncc(Cl)cc1Nc1nccc(-c2cc(C#N)c3c(c2)[C@@](C)(CO)CN3)n1 [Compound 35]
Endpoint returns the identifier whose melting point is numerically larger, either P or Q . When you have decided, please share the label of that item.
Q

###

tested on: JJN-3 (NIK translocated) multiple myeloma cells; experiment: Antiproliferative activity on JJN-3 multiple myeloma cells (CellTiter-Glo); format: cell-based, human; settings: Homo sapiens, JJN-3, 96 h, JJN-3 (NIK translocated) cells, 96 hr treatment, averaged values, read-out: JJN-3 Proliferation inhibition (IC50 (nM))
Test Readout: IC50 (nM)

Sample answers from the record:
CCCCOc1ncccc1Nc1nccc(-c2cc(C#N)c3c(c2)[C@@](C)(CO)CN3)n1; 550
Cc1nccnc1Nc1nccc(-c2cc(C#N)c3c(c2)[C@@](C)(CO)CN3)n1; 3160
COc1ncccc1Nc1nccc(-c2cc(C#N)c3c(c2)C(C)(CNCCS(C)(=O)=O)CN3)n1 (stereo not shown); 1820

A = COCCNc1nc(OC(C)C)c(Nc2nccc(-c3cc(C#N)c4c(c3)C(C)(CO)CN4)n2)cc1Cl (stereo not shown)
B = COc1ncc(Cl)cc1Nc1nccc(-c2cc(C#N)c3c(c2)C(C)(COCCN2CCOCC2)CN3)n1 (stereo not shown)
C = COc1ncc(Cl)cc1Nc1nccc(-c2cc(C#N)c3c(c2)[C@](C)(COC(=O)[C@H](C)N)CN3)n1
D = Cc1cnc(C#N)cc1Nc1nccc(-c2cc(C#N)c3c(c2)[C@@](C)(CO)CN3)n1
Please give the order of these compounds when sorted by IC50, largest value leading. Returns: the labels listed in the requested order.
B, C, A, D

###

biological target: recombinant human NF-kappaB-inducing Kinase (NIK/MAP3K14) (Homo sapiens, UniProt Q99558); assay: Inhibition of auto-phosphorylation of recombinant human NIK/MAP3K14 activity (AlphaScreen); assay type: biochemical; settings: 25 microM ATP, averaged over all measurements on all batches
Sequence (Q99558 whole entry): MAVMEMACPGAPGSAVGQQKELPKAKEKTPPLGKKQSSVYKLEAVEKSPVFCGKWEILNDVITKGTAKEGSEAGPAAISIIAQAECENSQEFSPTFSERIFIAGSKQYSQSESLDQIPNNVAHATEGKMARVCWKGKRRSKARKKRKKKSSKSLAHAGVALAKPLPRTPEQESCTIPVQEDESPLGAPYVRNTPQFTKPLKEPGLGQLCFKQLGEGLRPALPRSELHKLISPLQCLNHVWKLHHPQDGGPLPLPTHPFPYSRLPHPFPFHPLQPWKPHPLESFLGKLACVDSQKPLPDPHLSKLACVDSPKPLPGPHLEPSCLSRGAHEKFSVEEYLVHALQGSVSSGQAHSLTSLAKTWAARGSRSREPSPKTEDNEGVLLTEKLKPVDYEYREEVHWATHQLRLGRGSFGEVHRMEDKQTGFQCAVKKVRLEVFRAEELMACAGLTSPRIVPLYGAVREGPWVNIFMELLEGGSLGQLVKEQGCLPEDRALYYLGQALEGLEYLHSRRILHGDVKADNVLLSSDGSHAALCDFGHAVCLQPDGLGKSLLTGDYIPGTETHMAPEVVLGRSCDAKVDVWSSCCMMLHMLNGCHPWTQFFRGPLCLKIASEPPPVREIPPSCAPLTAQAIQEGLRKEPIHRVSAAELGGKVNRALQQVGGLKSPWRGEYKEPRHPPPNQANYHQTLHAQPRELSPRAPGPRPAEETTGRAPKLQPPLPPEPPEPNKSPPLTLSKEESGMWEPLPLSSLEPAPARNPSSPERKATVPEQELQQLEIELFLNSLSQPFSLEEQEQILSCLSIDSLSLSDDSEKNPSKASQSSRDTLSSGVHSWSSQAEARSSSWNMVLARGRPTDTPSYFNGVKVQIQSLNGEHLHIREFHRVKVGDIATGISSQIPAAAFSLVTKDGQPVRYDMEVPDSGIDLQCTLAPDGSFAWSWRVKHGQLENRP
Test Readout: IC50 (nM)

Example compounds with recorded IC50:
Cc1cc(Nc2nccc(-c3cc(C#N)c4c(c3)[C@@](C)(CO)CN4)n2)c(C)cn1 [Compound 167]; 1.7
C[C@]1(CO)CNc2c(C#N)cc(-c3ccnc(Nc4cccnc4OC4CCOCC4)n3)cc21 [Compound 23]; 4.9
Cc1cc(Nc2nccc(-c3cc(C#N)c4c(c3)[C@@](C)(CO)CN4)n2)c(C)nc1OCC1COC1 [Compound 160]; 3.9
COc1ncc(Cl)cc1Nc1nccc(-c2cc(C#N)c3c(c2)C(C)(COCCN2CCCC2)CN3)n1 (centres unmarked) [Compound 120]; 79.4
COc1ncccc1Nc1nccc(-c2cc(C#N)c3c(c2)C(C)(CNC2CC2)CN3)n1 (centres unmarked) [Compound 110]; 33.9
CN1CCC(c2cc(Nc3nccc(-c4cc(C#N)c5c(c4)[C@@](C)(CO)CN5)n3)c(=O)n(CC3CC3)c2)CC1 [Compound 21i]; 64.6
C[C@]1(CO)CNc2c(C#N)cc(-c3ccnc(Nc4ccc[nH]c4=O)n3)cc21 [Compound 8i]; 4.5
Cc1nc(Nc2nccc(-c3cc(C#N)c4c(c3)[C@@](C)(CO)CN4)n2)cc(N2CCN(CCO)CC2)n1 [Compound 133]; 22.9

1 = Cc1ncc(Nc2nccc(-c3cc(C#N)c4c(c3)[C@@](C)(CO)CN4)n2)c(OCC2CCCO2)n1 (single isomer, unassigned) [Compound 138]
2 = COc1nc(C2=CCOCC2)ncc1Nc1nccc(-c2cc(C#N)c3c(c2)[C@@](C)(CO)CN3)n1 [Compound 143]
3 = COc1ncccc1Nc1nccc(-c2cc(C#N)c3c(c2)C(C)(COCCN2CCOCC2)CN3)n1 (centres unmarked) [Compound 117]
4 = Cc1ccnc(Nc2nccc(-c3cc(C#N)c4c(c3)C(C)(CO)CN4)n2)n1 (centres unmarked) [Compound 126]
5 = COc1cnc(C)cc1Nc1nccc(-c2cc(C#N)c3c(c2)[C@@](C)(CO)CN3)n1 [Compound 162]
Order the 5 compounds from highest to lowest IC50. Form entry: ranked labels (order as requested).
4, 3, 1, 2, 5

1 = COCCOc1nc(C(F)(F)F)ccc1Nc1nccc(-c2cc(C#N)c3c(c2)[C@@](C)(CO)CN3)n1 [Compound 53]
2 = Cn1cc(Cl)cc(Nc2nccc(-c3cc(C#N)c4c(c3)[C@@](C)(CO)CN4)n2)c1=O [Compound 13i]
3 = COCCOc1ncc(C2CC2)cc1Nc1nccc(-c2cc(C#N)c3c(c2)[C@@](C)(CO)CN3)n1 [Compound 67]
4 = Cc1cc(Nc2nccc(-c3cc(C#N)c4c(c3)[C@@](C)(CO)CN4)n2)c(=O)n(CCN2CCN(C)CC2)c1 [Compound 19i]
5 = COc1ncccc1Nc1ncc(F)c(-c2cc(C#N)c3c(c2)[C@@](C)(CO)CN3)n1 [Compound 103]
Rank order required: IC50, descending. Put the labels in the requested order and list them out.
1, 3, 2, 5, 4

a = COc1ncc(C(F)(F)F)cc1Nc1nccc(-c2cc(C#N)c3c(c2)[C@@](C)(CO)CN3)n1 [Compound 183]
b = CC(C)Oc1ncc(C#N)cc1Nc1nccc(-c2cc(C#N)c3c(c2)[C@@](C)(CO)CN3)n1 [Compound 75]
c = COc1nc(CCC(=O)N(C)C)ccc1Nc1nccc(-c2cc(C#N)c3c(c2)[C@@](C)(CO)CN3)n1 [Compound 49]
d = CN1CCCC(COc2ncc(Cl)cc2Nc2nccc(-c3cc(C#N)c4c(c3)[C@@](C)(CO)CN4)n2)C1 (single isomer, unassigned) [Compound 56]
Arrange these 4 compounds in increasing order of IC50. Would you mind listing the labels in the order asked for?
c, d, b, a
(c: 1.6 nM, d: 3.5 nM, b: 9.8 nM, a: 15.8 nM)

###

system: JJN-3 (NIK translocated) multiple myeloma cells; experiment: Antiproliferative activity on JJN-3 multiple myeloma cells (CellTiter-Glo); format: cell-based, human; details: Homo sapiens, JJN-3, 96 h, JJN-3 (NIK translocated) cells, 96 hr treatment, averaged values, read-out: JJN-3 Proliferation inhibition (IC50 (nM))
Test Readout: IC50 (nM)

Cc1cnc(CCNC2CC2)c(Nc2nccc(-c3cc(C#N)c4c(c3)[C@@](C)(CO)CN4)n2)c1; 49
COCCNc1nc(OC)c(Nc2nccc(-c3cc(C#N)c4c(c3)C(C)(CO)CN4)n2)cc1Cl (stereo not drawn); 74
COc1ncc(C(F)(F)F)cc1Nc1nccc(-c2cc(C#N)c3c(c2)[C@@](C)(CO)CN3)n1; 63
COc1ncccc1Nc1nccc(-c2cc(C#N)c3c(c2)C(C)(CN(C)CCO)CN3)n1 (stereo not drawn); 3550
COCCOc1ncccc1Nc1nccc(-c2cc(C#N)c3c(c2)[C@](C)(CO)CN3)n1; 2880

a = COc1ncc(F)cc1Nc1nccc(-c2cc(C#N)c3c(c2)[C@@](C)(CO)CN3)n1
b = CC(C)(O)c1ccc(Nc2nccc(-c3cc(C#N)c4c(c3)[C@@](C)(CO)CN4)n2)c(CCC2CC2)n1
c = CNC(=O)c1cc(Nc2nccc(-c3cc(C#N)c4c(c3)[C@@](C)(CO)CN4)n2)c(=O)n(CC2CC2)c1 [Compound 25i]
d = COc1cccnc1Nc1nccc(-c2cc(C#N)c3c(c2)[C@@](C)(CO)CN3)n1
Please list these compounds in decreasing order of IC50. Write out the labels following the order that was asked for.
d, b, a, c

A = CCOC(=O)c1ccc(Nc2nccc(-c3cc(C#N)c4c(c3)C(C)(CO)CN4)n2)cn1 (stereo not drawn)
B = CNC(=O)c1cc(Nc2nccc(-c3cc(C#N)c4c(c3)[C@@](C)(CO)CN4)n2)c(C)cn1
Between A and B , whose measured IC50 reads higher? Provide the label of your selected option as the answer.
A
(A: 219 nM, B: 117 nM)

P = COCCOc1nc(P(C)(C)=O)ccc1Nc1nccc(-c2cc(C#N)c3c(c2)[C@@](C)(CO)CN3)n1
Q = Cc1cc(Nc2nccc(-c3cc(C#N)c4c(c3)[C@@](C)(COC(=O)C(C)C)CN4)n2)c(=O)n(CCN2CC(C)OC(C)C2)c1 (stereo partly drawn) [Compound 24i]
# query: argmin of IC50 over P and Q Field: selected label. Fill in the label of the entry you choose.
Q

###

Test Readout: melting point (°C)

CN1CCCC(COc2ncc(Cl)cc2Nc2nccc(-c3cc(C#N)c4c(c3)[C@@](C)(CO)CN4)n2)C1 (single isomer, unassigned) [Compound 56]; 126
COc1ccncc1Nc1nccc(-c2cc(C#N)c3c(c2)[C@@](C)(CO)CN3)n1 [Compound 37]; 210
Cc1cc(Nc2ncnc(-c3cc(C#N)c4c(c3)[C@@](C)(CO)CN4)n2)c(=O)n(C)c1 [Compound 30i]; 276

P = COc1nc(C)ncc1Nc1nccc(-c2cc(C#N)c3c(c2)[C@@](C)(CO)CN3)n1 [Compound 129]
Q = Cc1cc(Nc2nccc(-c3cc(C#N)c4c(c3)C(C)(CO)CN4)n2)nc(C)n1 (stereo not shown) [Compound 127]
R = COc1ncccc1Nc1nccc(-c2cc(C#N)c3c(c2)C(C)(CN2CCOCC2)CN3)n1 (stereo not shown) [Compound 113]
# rank_down: sort by melting point, max first Quick reminder: the answer is the labels in the order asked.
Q, P, R
